# ASSAYED_SYSTEM: T1, human IL2Rβ Fc fusion protein (human, UniProt P14784 27-239)
# T1 construct: also called ILR2β; CD122; not shown: Fc part
# T1 sequence (looked up): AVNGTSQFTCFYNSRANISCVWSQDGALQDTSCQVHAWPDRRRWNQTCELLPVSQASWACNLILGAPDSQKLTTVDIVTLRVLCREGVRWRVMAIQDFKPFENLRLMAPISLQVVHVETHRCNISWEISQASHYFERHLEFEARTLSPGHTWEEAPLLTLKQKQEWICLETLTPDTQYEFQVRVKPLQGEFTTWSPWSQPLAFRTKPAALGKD
# ASSAY_PROTOCOL: ELISA, single concentration, anti-flag detection, E. coli-produced clone
MEASURE_NAME: OD450 nm (OD450)

A. EP577 (clone 2021EP16-E05), E. coli-produced (ligand) APASSSTKKTQLQLEHLLLDLQMILNGINNYKNPKLTRMLTFKFYMPKKATELKHLQCLEEELKPLEEVLNLAQSKNFHLKAIAFISDLKVRVLDLKGSETTFMCEYADETATIVEFLNRWITFSQSIISTLT
B. EP576 (clone 2021EP21-C10), E. coli-produced (ligand) APASSSTKKTQLQLEHLLLDLQMILNGINNYKNPKLTRMLTFKFYMPKKATELKHLQCLEEELKPLEEVLNLAQSKNFHLLPRNKISKTKVMVHELKGSETTFMCEYADETATIVEFLNRWITFSQSIISTLT
Input: In terms of reported OD450 nm, does A or B have the smaller number? Indicate your choice by writing its label.
Output: A

I. EP572 (clone 2021EP21-C03), E. coli-produced (ligand) APASSSTKKTQLQLEHLLLDLQMILNGINNYKNPKLTRMLTFKFYMPKKATELKHLQCLEEELKPLEEVLNLAQSKNFHLRARDIVRNAKVGVQELKGSETTFMCEYADETATIVEFLNRWITFSQSIISTLT
II. EP571 (clone 2021EP22-H02), E. coli-produced (ligand) APASSSTKKTQLQLEHLLLDLQMILNGINNYKNPKLTRMLTFKFYMPKKATELKHLQCLEEELKPLEEVLNLAQSKNFHLRPSELMATMRVPVQALKGSETTFMCEYADETATIVEFLNRWITFSQSIISTLT
Input: Exercise: compare I and II ; which one has the greater OD450 nm? Indicate your choice by writing its label.
Output: II
(II: 0.653 OD450, I: 0.143 OD450)
